# target_or_system: Phosphatidylinositol 4,5-bisphosphate 3-kinase catalytic subunit alpha isoform (Homo sapiens, UniProt P42336)
# Sequence (P42336 whole entry, canonical isoform): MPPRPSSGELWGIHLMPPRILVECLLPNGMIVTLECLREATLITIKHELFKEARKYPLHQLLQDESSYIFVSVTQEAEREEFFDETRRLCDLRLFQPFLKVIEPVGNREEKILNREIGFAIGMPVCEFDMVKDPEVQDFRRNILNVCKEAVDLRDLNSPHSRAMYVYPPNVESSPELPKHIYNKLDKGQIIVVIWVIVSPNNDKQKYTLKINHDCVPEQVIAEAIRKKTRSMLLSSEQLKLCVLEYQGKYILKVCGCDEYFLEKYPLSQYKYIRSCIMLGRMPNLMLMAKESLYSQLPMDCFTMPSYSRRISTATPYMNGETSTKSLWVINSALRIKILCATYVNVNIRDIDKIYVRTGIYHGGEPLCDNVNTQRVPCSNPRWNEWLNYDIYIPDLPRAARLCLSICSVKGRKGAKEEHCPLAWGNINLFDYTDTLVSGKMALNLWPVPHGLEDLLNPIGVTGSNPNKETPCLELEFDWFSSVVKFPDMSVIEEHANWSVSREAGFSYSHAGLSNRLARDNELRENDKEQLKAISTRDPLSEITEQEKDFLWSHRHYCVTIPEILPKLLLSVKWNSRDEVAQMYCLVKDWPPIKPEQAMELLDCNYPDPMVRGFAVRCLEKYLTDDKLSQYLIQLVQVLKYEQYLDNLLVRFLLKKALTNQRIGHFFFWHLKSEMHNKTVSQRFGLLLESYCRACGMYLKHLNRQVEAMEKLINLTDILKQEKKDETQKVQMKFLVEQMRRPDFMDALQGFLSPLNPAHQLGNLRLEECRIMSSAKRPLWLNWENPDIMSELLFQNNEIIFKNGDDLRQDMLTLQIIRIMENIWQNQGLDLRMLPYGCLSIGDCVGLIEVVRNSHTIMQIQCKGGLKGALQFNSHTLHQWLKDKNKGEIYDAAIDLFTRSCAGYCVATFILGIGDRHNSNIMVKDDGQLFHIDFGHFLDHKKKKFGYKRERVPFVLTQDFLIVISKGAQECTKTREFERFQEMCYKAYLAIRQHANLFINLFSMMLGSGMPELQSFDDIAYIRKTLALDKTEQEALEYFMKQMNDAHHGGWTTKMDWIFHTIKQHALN
# protocol_summary: Inhibition of human PI3Kalpha
observed_property: pIC50
Scale explanation: pIC50 corresponds to minus log10 of a concentration expressed in moles per litre.

Below, 6 compounds whose answers are already recorded.
query_smiles: Clc1ccc(Nc2nccc(-c3ccc(Cl)c(Cl)c3)n2)c(Cl)c1
test_value: 6.08
//
query_smiles: COc1ccc(-c2ccnc(Nc3ccc(Cl)cc3)n2)cc1
test_value: 6.26
//
query_smiles: Cc1cccc(Nc2nccc(-c3ccc(Br)cc3)n2)c1
test_value: 6.05
//
query_smiles: COc1cccc(Nc2nccc(-c3ccc(F)cc3)n2)c1
test_value: 6.06
//
query_smiles: O=[N+]([O-])c1ccc(Nc2nccc(-c3ccc(Cl)c(Cl)c3)n2)cc1
test_value: 6.30
//
query_smiles: CC(C)c1ccccc1Nc1nccc(-c2ccc(Br)cc2)n1
test_value: 6.10

stdin: Supply reported pIC50 belonging to this compound: `Clc1ccc(Nc2nccc(-c3ccc(Br)cc3)n2)c(Cl)c1`
stdout: 6.23

stdin: Supply reported pIC50 belonging to this compound: `COc1ccc(-c2ccnc(Nc3ccc(Cl)cc3Cl)n2)cc1`
stdout: 6.13

stdin: Supply reported pIC50 belonging to this compound: `Clc1ccc(Nc2nccc(-c3ccc(Cl)cc3Cl)n2)c(Cl)c1`
stdout: 6.11

stdin: Supply reported pIC50 belonging to this compound: `COc1cc(Nc2nccc(-c3ccc(Cl)cc3)n2)cc(OC)c1OC`
stdout: 6.47
